biological target: T1, IL-1beta (UniProt P01584 117-269); experiment: Biacore
T1 construct: also called IL-1β
RECORDED_METRIC: fold difference in affinity vs parental (fold)
Enter your answer as a number in fold; do not include the unit.

* XPA23 Fab, heavy chain R59Q (Fab, V domains shown) VH: EVQLLESGGGLVQPGGSLRLSCAASGFTFSKYFMFWVRQAPGKGLEWVSVISPSGGMTQYADSVKGRFTISRDNSKNTLYLQMNSLRAEDTAVYYCARVGYGGNSDYWGQGTLVTVSS VL: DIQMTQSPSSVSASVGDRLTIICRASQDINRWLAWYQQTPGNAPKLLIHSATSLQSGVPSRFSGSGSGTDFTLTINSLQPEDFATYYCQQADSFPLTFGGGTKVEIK | 0.86
* XPA23 Fab, heavy chain S54N (Fab, V domains shown) VH: EVQLLESGGGLVQPGGSLRLSCAASGFTFSKYFMFWVRQAPGKGLEWVSVISPNGGMTRYADSVKGRFTISRDNSKNTLYLQMNSLRAEDTAVYYCARVGYGGNSDYWGQGTLVTVSS VL: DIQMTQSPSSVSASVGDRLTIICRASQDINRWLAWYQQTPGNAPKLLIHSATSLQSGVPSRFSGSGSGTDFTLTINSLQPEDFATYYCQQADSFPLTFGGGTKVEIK | 0.08
* XPA23 Fab, heavy chain F33W (Fab, V domains shown) VH: EVQLLESGGGLVQPGGSLRLSCAASGFTFSKYWMFWVRQAPGKGLEWVSVISPSGGMTRYADSVKGRFTISRDNSKNTLYLQMNSLRAEDTAVYYCARVGYGGNSDYWGQGTLVTVSS VL: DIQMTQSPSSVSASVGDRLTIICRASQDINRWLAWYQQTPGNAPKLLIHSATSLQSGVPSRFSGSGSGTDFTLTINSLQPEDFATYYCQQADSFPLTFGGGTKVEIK | 0.79
* XPA23 Fab, heavy chain G102N (Fab, V domains shown) VH: EVQLLESGGGLVQPGGSLRLSCAASGFTFSKYFMFWVRQAPGKGLEWVSVISPSGGMTRYADSVKGRFTISRDNSKNTLYLQMNSLRAEDTAVYYCARVGYNGNSDYWGQGTLVTVSS VL: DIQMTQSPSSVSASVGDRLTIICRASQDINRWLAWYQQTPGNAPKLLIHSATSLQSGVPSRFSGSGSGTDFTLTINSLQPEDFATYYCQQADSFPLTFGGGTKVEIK | 1.17
* XPA23 Fab, heavy chain Y107S (Fab, V domains shown) VH: EVQLLESGGGLVQPGGSLRLSCAASGFTFSKYFMFWVRQAPGKGLEWVSVISPSGGMTRYADSVKGRFTISRDNSKNTLYLQMNSLRAEDTAVYYCARVGYGGNSDSWGQGTLVTVSS VL: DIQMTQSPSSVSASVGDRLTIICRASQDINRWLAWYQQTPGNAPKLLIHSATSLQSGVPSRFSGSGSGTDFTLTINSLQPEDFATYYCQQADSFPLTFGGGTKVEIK | 0.89

Query :: Consider the binder shown here: XPA23 Fab, heavy chain T58W (Fab, V domains shown) VH: EVQLLESGGGLVQPGGSLRLSCAASGFTFSKYFMFWVRQAPGKGLEWVSVISPSGGMWRYADSVKGRFTISRDNSKNTLYLQMNSLRAEDTAVYYCARVGYGGNSDYWGQGTLVTVSS VL: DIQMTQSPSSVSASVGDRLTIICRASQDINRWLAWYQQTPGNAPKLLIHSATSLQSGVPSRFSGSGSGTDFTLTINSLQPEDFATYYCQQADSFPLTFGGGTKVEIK What is its recorded fold difference in affinity vs parental?
Result :: 0.93

Query :: Then this binder: XPA23 Fab, heavy chain F35K (Fab, V domains shown) VH: EVQLLESGGGLVQPGGSLRLSCAASGFTFSKYFMKWVRQAPGKGLEWVSVISPSGGMTRYADSVKGRFTISRDNSKNTLYLQMNSLRAEDTAVYYCARVGYGGNSDYWGQGTLVTVSS VL: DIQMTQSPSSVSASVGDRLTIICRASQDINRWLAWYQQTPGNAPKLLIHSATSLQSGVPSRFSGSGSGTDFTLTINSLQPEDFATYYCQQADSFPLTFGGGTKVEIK
Result :: 0.68

Query :: # repeat for XPA23 Fab, heavy chain P53F (Fab, V domains shown) VH: EVQLLESGGGLVQPGGSLRLSCAASGFTFSKYFMFWVRQAPGKGLEWVSVISFSGGMTRYADSVKGRFTISRDNSKNTLYLQMNSLRAEDTAVYYCARVGYGGNSDYWGQGTLVTVSS VL: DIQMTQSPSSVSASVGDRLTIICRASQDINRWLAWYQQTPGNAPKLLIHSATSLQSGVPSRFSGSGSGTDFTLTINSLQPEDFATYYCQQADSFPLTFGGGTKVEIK
Result :: 0.05

Query :: Another binder to look at: XPA23 Fab, heavy chain P53E (Fab, V domains shown) VH: EVQLLESGGGLVQPGGSLRLSCAASGFTFSKYFMFWVRQAPGKGLEWVSVISESGGMTRYADSVKGRFTISRDNSKNTLYLQMNSLRAEDTAVYYCARVGYGGNSDYWGQGTLVTVSS VL: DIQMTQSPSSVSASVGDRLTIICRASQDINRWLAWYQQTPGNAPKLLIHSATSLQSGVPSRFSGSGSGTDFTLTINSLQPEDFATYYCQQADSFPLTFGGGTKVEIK
Result :: 0.03

Query :: Would you mind doing XPA23 Fab, heavy chain N104Q (Fab, V domains shown) VH: EVQLLESGGGLVQPGGSLRLSCAASGFTFSKYFMFWVRQAPGKGLEWVSVISPSGGMTRYADSVKGRFTISRDNSKNTLYLQMNSLRAEDTAVYYCARVGYGGQSDYWGQGTLVTVSS VL: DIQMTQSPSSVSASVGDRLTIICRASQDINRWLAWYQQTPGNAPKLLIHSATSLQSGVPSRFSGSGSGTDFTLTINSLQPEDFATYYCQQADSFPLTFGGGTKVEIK as well?
Result :: 0.03

All values here come from patent US20110118131A1.
